Taken from patent US20220274983A1.

System: BaF3 cells
Test: Proliferation inhibition based on BaF3 cells (IL-3 medium, CTG)
Type: cell-based
Conditions: Mus musculus, medium containing IL-3, read-out: IC50 (uM), proliferation inhibitory activity on BaF3 cells
Measured IC50, listed per entry.

{"compound": "O=C(Nc1nc2cccc(-c3cnc(CN4CCS(=O)(=O)CC4)s3)n2n1)C1CC1 [EXP-4]", "target entity": "BaF3 cells", "IC50": "5 to 30 µM"}
{"compound": "O=C(Nc1nc2cccc(-c3ccc(CN4CCS(=O)(=O)CC4)s3)n2n1)C1CC1 [EXP-1]", "target entity": "BaF3 cells", "IC50": "< 5 µM"}
{"compound": "O=C(Nc1nc2cccc(-c3ccc(CN4CCS(=O)(=O)CC4)cc3)n2n1)C1CC1 [Filgotinib, reference compound]", "target entity": "BaF3 cells", "IC50": "5 to 30 µM"}
{"compound": "O=C(Nc1nc2cccc(-c3ccc(CN4CCS(=O)(=O)CC4)s3)n2n1)[C@H]1C[C@H]1F (relative stereo) [EXP-5]", "target entity": "BaF3 cells", "IC50": "< 5 µM"}
{"compound": "O=C(Nc1cn2c(-c3ccc(CN4CCS(=O)(=O)CC4)s3)cccc2n1)[C@H]1C[C@@H]1F (relative stereo) [EXP-3]", "target entity": "BaF3 cells", "IC50": "< 5 µM"}
{"compound": "Cc1cc(-c2cccc3nc(NC(=O)C4CC4)nn23)sc1CN1CCS(=O)(=O)CC1 [EXP-2]", "target entity": "BaF3 cells", "IC50": "< 5 µM"}

----------
System: Hela cells
Experiment: Proliferation inhibition based on Hela cells (OSM stimulation, CTG)
Type: cell-based
Details: Homo sapiens, read-out: IC50 (uM), proliferation inhibitory activity on Hela cells

{"compound": "O=C(Nc1nc2cccc(-c3ccc(CN4CCS(=O)(=O)CC4)cc3)n2n1)C1CC1 [Filgotinib, reference compound]", "IC50": "5 to 30 µM"}

----------
Biological target: JAK1 (Homo sapiens)
Sequence (P23458 whole entry, species assumed): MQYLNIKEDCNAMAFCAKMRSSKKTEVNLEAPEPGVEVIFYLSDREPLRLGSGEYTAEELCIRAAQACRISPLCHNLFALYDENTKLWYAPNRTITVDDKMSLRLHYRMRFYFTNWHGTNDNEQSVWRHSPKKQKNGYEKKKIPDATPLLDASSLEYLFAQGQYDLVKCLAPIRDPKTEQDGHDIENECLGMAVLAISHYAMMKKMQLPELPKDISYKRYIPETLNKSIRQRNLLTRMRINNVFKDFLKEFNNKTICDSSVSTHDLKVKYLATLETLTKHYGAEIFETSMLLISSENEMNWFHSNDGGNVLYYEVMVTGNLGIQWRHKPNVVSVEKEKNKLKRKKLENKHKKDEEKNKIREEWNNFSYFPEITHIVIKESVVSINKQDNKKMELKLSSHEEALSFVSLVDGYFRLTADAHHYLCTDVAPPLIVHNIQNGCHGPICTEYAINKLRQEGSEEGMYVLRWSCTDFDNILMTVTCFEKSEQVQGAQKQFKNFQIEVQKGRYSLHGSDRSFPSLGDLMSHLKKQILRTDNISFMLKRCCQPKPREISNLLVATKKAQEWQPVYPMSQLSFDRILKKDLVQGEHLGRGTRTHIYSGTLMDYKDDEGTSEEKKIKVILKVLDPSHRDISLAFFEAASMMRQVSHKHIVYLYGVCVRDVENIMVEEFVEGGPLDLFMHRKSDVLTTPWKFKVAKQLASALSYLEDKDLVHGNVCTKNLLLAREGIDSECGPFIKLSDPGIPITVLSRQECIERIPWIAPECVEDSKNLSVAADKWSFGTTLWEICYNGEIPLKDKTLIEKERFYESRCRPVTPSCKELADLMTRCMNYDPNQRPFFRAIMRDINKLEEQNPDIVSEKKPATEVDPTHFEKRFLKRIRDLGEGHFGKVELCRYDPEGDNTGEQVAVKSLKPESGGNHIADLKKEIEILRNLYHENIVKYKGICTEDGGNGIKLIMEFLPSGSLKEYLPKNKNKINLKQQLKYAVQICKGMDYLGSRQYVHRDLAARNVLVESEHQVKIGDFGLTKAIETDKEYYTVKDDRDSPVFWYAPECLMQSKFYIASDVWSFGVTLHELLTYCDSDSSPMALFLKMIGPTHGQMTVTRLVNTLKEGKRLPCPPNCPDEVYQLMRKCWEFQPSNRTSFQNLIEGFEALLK
Experiment: JAK kinase inhibitory activity, HTRF biochemical assay

{"compound": "O=C(Nc1nc2cccc(-c3ccc(CN4CCC(C(F)(F)F)CC4)s3)n2n1)[C@H]1C[C@@H]1F [EXP-11]", "IC50": "50 to 500 nM"}
{"compound": "O=C(Nc1nc2cccc(-c3ccc(CN4CCS(=O)(=O)CC4)s3)n2n1)C1CC1 [EXP-1]", "IC50": "30 to 50 nM"}
{"compound": "O=C(Nc1nc2cccc(-c3ccc(CN4CCS(=O)(=O)CC4)s3)n2n1)[C@@H]1C[C@H]1C(F)(F)F [EXP-9]", "IC50": "50 to 500 nM"}

----------
Molecular target: JAK2 (Homo sapiens, UniProt O60674)
Sequence (O60674 whole entry, species assumed): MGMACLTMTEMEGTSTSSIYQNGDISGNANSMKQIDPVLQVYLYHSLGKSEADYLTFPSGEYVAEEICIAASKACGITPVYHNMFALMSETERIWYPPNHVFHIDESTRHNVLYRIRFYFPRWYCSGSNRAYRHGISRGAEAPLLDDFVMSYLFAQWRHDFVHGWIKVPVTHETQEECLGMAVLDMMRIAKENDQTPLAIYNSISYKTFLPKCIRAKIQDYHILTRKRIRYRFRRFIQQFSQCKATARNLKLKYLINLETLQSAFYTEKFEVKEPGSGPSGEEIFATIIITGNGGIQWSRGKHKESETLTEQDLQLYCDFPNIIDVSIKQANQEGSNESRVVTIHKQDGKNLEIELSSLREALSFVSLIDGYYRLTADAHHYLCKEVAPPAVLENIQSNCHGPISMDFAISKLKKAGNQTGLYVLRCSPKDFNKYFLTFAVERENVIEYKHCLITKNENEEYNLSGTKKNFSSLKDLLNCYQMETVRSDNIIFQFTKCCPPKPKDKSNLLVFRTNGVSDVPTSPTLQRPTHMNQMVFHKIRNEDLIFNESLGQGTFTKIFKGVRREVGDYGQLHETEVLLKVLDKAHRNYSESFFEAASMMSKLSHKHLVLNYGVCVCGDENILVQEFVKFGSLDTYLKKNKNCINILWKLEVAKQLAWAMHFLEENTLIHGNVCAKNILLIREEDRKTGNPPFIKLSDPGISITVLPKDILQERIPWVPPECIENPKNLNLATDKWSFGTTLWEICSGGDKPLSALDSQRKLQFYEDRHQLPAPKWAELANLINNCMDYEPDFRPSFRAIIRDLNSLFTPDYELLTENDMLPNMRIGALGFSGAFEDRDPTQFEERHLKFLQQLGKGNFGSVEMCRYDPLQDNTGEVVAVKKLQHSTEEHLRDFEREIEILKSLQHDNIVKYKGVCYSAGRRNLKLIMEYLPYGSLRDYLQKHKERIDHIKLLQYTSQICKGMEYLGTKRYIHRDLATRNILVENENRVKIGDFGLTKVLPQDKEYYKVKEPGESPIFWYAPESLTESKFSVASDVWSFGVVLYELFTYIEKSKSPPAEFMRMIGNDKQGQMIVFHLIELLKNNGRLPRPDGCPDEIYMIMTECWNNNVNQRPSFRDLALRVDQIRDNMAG
Assay: JAK kinase inhibitory activity, HTRF biochemical assay
Let's look at some compounds and their measured IC50.

{"compound": "Cc1cc(-c2cccc3nc(NC(=O)C4CC4)nn23)sc1CN1CCC(F)(F)CC1", "IC50": "30 to 50 nM"}
{"compound": "O=C(Nc1nc2cccc(-c3ccc(CN4CCS(=O)(=O)CC4)s3)n2n1)[C@H]1C[C@H]1C(F)(F)F", "IC50": "> 500 nM"}
{"compound": "O=C(Nc1nc2cccc(-c3ccc(CN4CCS(=O)(=O)CC4)s3)n2n1)[C@H]1C[C@H]1F (relative stereo)", "IC50": "50 to 500 nM"}
{"compound": "O=C(NCCc1nccs1)c1cc(-c2cccc3nc(NC(=O)C4CC4)nn23)cs1", "IC50": "50 to 500 nM"}
{"compound": "O=C(Nc1nc2cccc(-c3ccc(CN4CCC(C(F)(F)F)CC4)s3)n2n1)[C@H]1C[C@@H]1F", "IC50": "50 to 500 nM"}
{"compound": "O=C(Nc1nc2cccc(-c3ccc(CN4CCS(=O)(=O)CC4)s3)n2n1)[C@H]1C[C@@H]1F", "IC50": "50 to 500 nM"}
{"compound": "O=C(Nc1nc2cccc(-c3ccc(CN4CCS(=O)(=O)CC4)s3)n2n1)[C@@H]1C[C@H]1C(F)(F)F", "IC50": "50 to 500 nM"}
{"compound": "O=C(Nc1nc2cccc(-c3nnc(CN4CCS(=O)(=O)CC4)s3)n2n1)C1CC1", "IC50": "> 500 nM"}
{"compound": "CC1(C(=O)Nc2nc3cccc(-c4ccc(CN5CCS(=O)(=O)CC5)s4)n3n2)CC1(F)F (stereo not drawn)", "IC50": "> 500 nM"}
{"compound": "Cc1cc(-c2cccc3nc(NC(=O)C4CC4)nn23)sc1CN1CCS(=O)(=O)CC1", "IC50": "50 to 500 nM"}
{"compound": "O=C(Nc1cn2c(-c3ccc(CN4CCS(=O)(=O)CC4)s3)cccc2n1)[C@H]1C[C@@H]1F (relative stereo)", "IC50": "30 to 50 nM"}
{"compound": "O=C(Nc1nc2cccc(-c3ccc(CN4CCS(=O)(=O)CC4)s3)n2n1)C1CC1", "IC50": "30 to 50 nM"}

----------
Test: Pharmacokinetic study
Assay type: in vivo
Settings: rat, plasma; rats, oral, 1-10 mg/kg

{"compound": "O=C(Nc1nc2cccc(-c3ccc(CN4CCS(=O)(=O)CC4)cc3)n2n1)C1CC1 [Filgotinib, reference compound]", "AUC / ng·h/mL": 2850}
{"compound": "O=C(Nc1nc2cccc(-c3ccc(CN4CCS(=O)(=O)CC4)s3)n2n1)C1CC1", "AUC / ng·h/mL": 12000}

----------
Target: UniProtKB P23458
Assay: JAK kinase inhibitory activity, HTRF biochemical assay
Documented IC50 across a set of compounds

{"compound": "O=C(Nc1nc2cccc(-c3nnc(CN4CCS(=O)(=O)CC4)s3)n2n1)C1CC1 [EXP-14]", "IC50": "> 500 nM"}
{"compound": "O=C(Nc1cn2c(-c3ccc(CN4CCS(=O)(=O)CC4)s3)cccc2n1)[C@H]1C[C@@H]1F (relative stereo) [EXP-3]", "IC50": "10 to 30 nM"}
{"compound": "O=C(NCCc1nccs1)c1ccc(-c2cccc3nc(NC(=O)C4CC4)nn23)s1 [EXP-17]", "IC50": "> 500 nM"}
{"compound": "O=C(Nc1nc2cccc(-c3cnc(CN4CCS(=O)(=O)CC4)s3)n2n1)C1CC1 [EXP-4]", "IC50": "> 500 nM"}
{"compound": "O=C(Nc1nc2cccc(-c3ccc(CN4CCS(=O)(=O)CC4)s3)n2n1)[C@H]1C[C@@H]1F [EXP-6]", "IC50": "50 to 500 nM"}
{"compound": "O=C(Nc1nc2cccc(-c3ccc(CN4CCC(F)(F)CC4)s3)n2n1)[C@H]1C[C@@H]1F (relative stereo) [EXP-12]", "IC50": "50 to 500 nM"}
{"compound": "O=C(Nc1nc2cccc(-c3nnc(CN4CCS(=O)(=O)CC4)o3)n2n1)C1CC1 [EXP-15]", "IC50": "> 500 nM"}
{"compound": "O=C(NCCc1nccs1)c1cc(-c2cccc3nc(NC(=O)C4CC4)nn23)cs1 [EXP-18]", "IC50": "50 to 500 nM"}

----------
Assay: Pharmacokinetic study
Type: in vivo
Details: rat, plasma; rats, oral, 1-10 mg/kg

{"compound": "O=C(Nc1nc2cccc(-c3ccc(CN4CCS(=O)(=O)CC4)cc3)n2n1)C1CC1 [Filgotinib, reference compound]", "units": "h", "half-life": 3.9}
{"compound": "O=C(Nc1nc2cccc(-c3ccc(CN4CCS(=O)(=O)CC4)s3)n2n1)C1CC1", "units": "h", "half-life": 2.68}
